# Test system: NKM-1 (Acute Myeloid Leukemia)
# method_description: combination Emax (second highest fraction inhibited in the dose matrix, 72 h); higher = more inhibition; extreme values may be limits of the assay
assay_metric: combination Emax
Just the number, please, no unit after it.

Recorded combination Emax (compound COc1cccc(OCCCN)c1-c1cc(Nc2cnc(C#N)cn2)n[nH]1 [Prexasertib] + C=CCn1c(=O)c2cnc(Nc3ccc(N4CCN(C)CC4)cc3)nc2n1-c1cccc(C(C)(C)O)n1 [AZD1775] (first compound max 1 µM, partner max 1 µM) ): 0.956

Noted for CC(=O)c1c(C)c2cnc(Nc3ccc(N4CCNCC4)cn3)nc2n(C2CCCC2)c1=O [Palbociclib] + Cc1c2c(nn1C)CSCc1cc(n(C)n1)CSc1cc(c3ccccc3c1)OCCCc1c(C(=O)O)n(C)c3c-2c(Cl)ccc13 [AZD5991] (first compound max 10 µM, 7x7, partner max 1 µM) : its combination Emax reads 0.994
